- measured-target: Group IIA purified human synovial sPLA2 (Homo sapiens, UniProt P14555)
- Construct: purchased Cayman, USA
- Sequence (P14555 21-144): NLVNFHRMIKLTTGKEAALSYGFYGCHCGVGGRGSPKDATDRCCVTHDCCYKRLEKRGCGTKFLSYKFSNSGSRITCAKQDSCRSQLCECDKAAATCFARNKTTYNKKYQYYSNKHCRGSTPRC
- assay-overview: In vitro inhibition of purified human synovial sPLA2, 3H-labelled E. coli membranes
- Format: biochemical
- assay-conditions: fixed peptide concentration 5 μM
value-type: Mean % Inhibition (%)
Please state the figure in %; there is no need to write the unit.

{"substance": "GRVDIHVWDGV [PIP (57–67)]", "result-units": "%", "Mean % Inhibition": 14.22}

Per the record, LGRVDIHVWDGV [PIP (56–67)] has Mean % Inhibition of 34.21
